Target: UniProt:P05181
Sequence (P05181 whole entry): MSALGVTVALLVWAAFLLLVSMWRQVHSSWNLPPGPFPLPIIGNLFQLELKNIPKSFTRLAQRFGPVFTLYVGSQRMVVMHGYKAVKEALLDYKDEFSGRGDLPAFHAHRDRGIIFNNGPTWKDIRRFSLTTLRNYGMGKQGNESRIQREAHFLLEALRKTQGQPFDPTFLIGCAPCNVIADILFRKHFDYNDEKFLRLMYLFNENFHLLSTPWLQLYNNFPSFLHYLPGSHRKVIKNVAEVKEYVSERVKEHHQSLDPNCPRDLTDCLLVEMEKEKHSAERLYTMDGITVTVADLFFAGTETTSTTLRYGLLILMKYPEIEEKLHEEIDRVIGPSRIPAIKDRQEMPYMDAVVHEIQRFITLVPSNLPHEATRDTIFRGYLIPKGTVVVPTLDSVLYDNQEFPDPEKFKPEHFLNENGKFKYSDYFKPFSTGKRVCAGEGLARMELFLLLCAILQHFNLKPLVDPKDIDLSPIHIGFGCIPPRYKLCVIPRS
Assay: Metabolism in transgenic HEK293 cells expressing CYP2E1
Conditions: CYP2E1 Clone B5; 20 µM parent PCB, 24 h, supernatant
Experimental: For the generation of transgenic cell lines, we used semi-adherent HEK293 cells (DSMZ, ACC305, human embryonic kidney cells) which were cultured on a daily basis in DMEM medium supplemented with 10% (FCS) and 1% penicillin/streptomycin. […]
attribute-measured: Quantification of metabolites generated from PCB28, 52, and 101

Known Quantification of metabolites generated from PCB28, 52, and 101 results, listed for orientation:
structure=Oc1cc(Cl)c(-c2cc(Cl)ccc2Cl)cc1Cl recorded_result="8,9 nM"
structure=Oc1cc(Cl)c(-c2cc(Cl)c(Cl)cc2Cl)cc1Cl recorded_result="4,02 nM"
structure=Oc1cc(Cl)cc(-c2cc(Cl)c(Cl)cc2Cl)c1Cl recorded_result=<LOQ
structure=Oc1cc(-c2ccc(Cl)cc2)c(Cl)cc1Cl recorded_result=<LOQ
structure=Oc1cc(Cl)c(-c2ccc(Cl)cc2)cc1Cl recorded_result=<LOQ

Continue with the compound presented below.
State the recorded Quantification of metabolites generated from PCB28, 52, and 101 for this entry: "Oc1cc(Cl)cc(-c2cc(Cl)ccc2Cl)c1Cl"
0,59 nM
